target system: 5-hydroxytryptamine receptor 2B (Homo sapiens)
protocol notes: Displacement of [3H]LSD from human recombinant 5-HT2B receptor expressed in CHO cells by radioligand completion assay relative to control
Format: cell-based
readout: Ki

smiles text: CC[C@H]1CN2CCc3c([nH]c4cccc(OC)c34)[C@@H]2C[C@@H]1/C(=C\OC)C(=O)OC
result: 23 nM

## Task Entry under review: C=C[C@H]1CN2CCc3c([nH]c4cccc(OC)c34)[C@@H]2C[C@@H]1/C(=C\OC)C(=O)OC . Reported Ki?
## Result 20 nM

* * *

target system: 5-hydroxytryptamine receptor 1B (Rattus norvegicus) (UniProt P28564)
Sequence (P28564 whole entry): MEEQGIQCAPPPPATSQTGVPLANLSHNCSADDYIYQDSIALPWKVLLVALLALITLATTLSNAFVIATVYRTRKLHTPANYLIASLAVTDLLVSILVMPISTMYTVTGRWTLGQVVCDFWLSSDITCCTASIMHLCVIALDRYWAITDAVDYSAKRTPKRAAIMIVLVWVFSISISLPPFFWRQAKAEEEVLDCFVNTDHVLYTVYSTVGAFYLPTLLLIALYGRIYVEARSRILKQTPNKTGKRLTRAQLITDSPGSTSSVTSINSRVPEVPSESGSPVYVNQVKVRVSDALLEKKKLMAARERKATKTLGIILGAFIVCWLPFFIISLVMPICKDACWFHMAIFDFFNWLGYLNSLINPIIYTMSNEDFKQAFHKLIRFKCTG
protocol notes: Displacement of [125I]CYP from rat cerebral cortex 5-HT1B receptor at 10 uM measured after 120 mins by radioligand completion assay relative to control
Format: tissue-based
readout: Activity (%)
One number for each entry, in %.

Consider the following illustrative entries.
smiles text: CC[C@@H]1CN2CCc3c([nH]c4cccc(OC)c34)[C@H]2C[C@@H]1/C(=C\OC)C(=O)OC
result: 16.8

smiles text: CC[C@H]1CN2CCc3c([nH]c4cccc(OC)c34)[C@@H]2C[C@@H]1/C(=C\OC)C(=O)OC
result: 30.4

smiles text: CC[C@@H]1CN2CC[C@@]3(O)C(=Nc4cccc(OC)c43)[C@@H]2C[C@@H]1/C(=C\OC)C(=O)OC
result: -0.8

Now look at this entry.
## Task Entry under review: CC[C@@H]1CN2CCc3c([nH]c4cccc(OC)c34)[C@@H]2C[C@@H]1/C(=C\OC)C(=O)OC . Reported Activity?
## Result 8.2

* * *

protocol notes: AUCinfinity in Sprague-Dawley rat at […], iv
Format: ADME, organism-based
run conditions: in vivo
readout: AUC(0-inf) (ng·h/mL)
Numbers only, in ng·h/mL.

## Task Entry under review: CC[C@H]1CN2CCc3c([nH]c4cccc(OC)c34)[C@@H]2C[C@@H]1/C(=C\OC)C(=O)OC . Reported AUC(0-inf)?
## Result 495

* * *

target system: 5-hydroxytryptamine receptor 2B (Homo sapiens, UniProt P41595)
Sequence (P41595 whole entry): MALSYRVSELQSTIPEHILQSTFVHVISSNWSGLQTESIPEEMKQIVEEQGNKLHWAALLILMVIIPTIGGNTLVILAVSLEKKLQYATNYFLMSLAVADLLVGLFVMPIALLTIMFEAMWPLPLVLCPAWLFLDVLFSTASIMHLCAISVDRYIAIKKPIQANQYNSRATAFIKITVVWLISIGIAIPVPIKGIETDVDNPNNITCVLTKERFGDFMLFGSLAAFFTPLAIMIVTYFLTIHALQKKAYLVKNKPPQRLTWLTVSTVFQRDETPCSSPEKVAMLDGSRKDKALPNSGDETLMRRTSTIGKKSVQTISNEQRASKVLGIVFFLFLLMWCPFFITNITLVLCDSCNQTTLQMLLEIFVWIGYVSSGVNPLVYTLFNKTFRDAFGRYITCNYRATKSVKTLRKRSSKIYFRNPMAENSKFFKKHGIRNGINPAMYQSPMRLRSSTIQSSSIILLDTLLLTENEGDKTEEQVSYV
protocol notes: biochemical
Assign labels as follows, please: 1.0 for Ki below 300 nM; 0.0 for Ki equal to or exceeding 300 nM.

Examples from the recorded data:
smiles text: C=C[C@H]1CN2CCc3c([nH]c4cccc(O)c34)[C@@H]2C[C@@H]1/C(=C\OC)C(=O)OC
class name: 0.0

smiles text: CC[C@@H]1CN2CCc3c([nH]c4cccc(OC)c34)[C@@H]2C[C@@H]1/C(=C\OC)C(=O)OC
class name: 0.0

## Task is_below(Ki, 300 nM) for CC[C@H]1CN2CCc3c([nH]c4cccc(O)c34)[C@@H]2C[C@@H]1/C(=C\OC)C(=O)OC ?
## Result 0.0

## Task Then what about the compound C=C[C@H]1CN2CCc3c([nH]c4cccc(OC)c34)[C@@H]2C[C@@H]1/C(=C\OC)C(=O)OC ?
## Result 1.0

## Task Then what about the compound CC[C@H]1CN2CCc3c([nH]c4cccc(OC)c34)[C@@H]2C[C@@H]1/C(=C\OC)C(=O)OC ?
## Result 1.0
